System: Sodium-dependent dopamine transporter (Homo sapiens, UniProt Q01959) | Read-out: AC50; further: assay procedure not described here
Sequence (Q01959 whole entry): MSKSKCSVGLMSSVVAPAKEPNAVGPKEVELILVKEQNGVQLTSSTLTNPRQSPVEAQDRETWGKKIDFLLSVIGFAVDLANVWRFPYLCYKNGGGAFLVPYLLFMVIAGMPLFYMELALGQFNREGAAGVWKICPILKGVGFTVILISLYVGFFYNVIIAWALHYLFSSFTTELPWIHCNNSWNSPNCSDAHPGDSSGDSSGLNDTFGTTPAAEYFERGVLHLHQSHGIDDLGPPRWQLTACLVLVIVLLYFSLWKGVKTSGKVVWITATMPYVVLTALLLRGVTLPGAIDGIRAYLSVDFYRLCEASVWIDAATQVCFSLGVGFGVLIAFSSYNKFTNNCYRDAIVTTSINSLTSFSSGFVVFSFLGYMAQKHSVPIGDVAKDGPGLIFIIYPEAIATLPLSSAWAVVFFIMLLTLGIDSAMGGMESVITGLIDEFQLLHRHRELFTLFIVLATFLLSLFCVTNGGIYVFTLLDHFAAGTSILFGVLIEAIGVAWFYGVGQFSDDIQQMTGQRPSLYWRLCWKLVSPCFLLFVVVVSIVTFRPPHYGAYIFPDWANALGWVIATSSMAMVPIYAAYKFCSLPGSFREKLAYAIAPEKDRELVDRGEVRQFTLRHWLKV
reported-endpoint: AC50

>>> data_value("OC(CCN1CCCCC1)(c1ccccc1)c1ccccc1")
"> 30 µM"
>>> data_value("CN(C)S(=O)(=O)c1ccc2c(c1)N(CCCN1CCC(CCO)CC1)c1ccccc1S2")
"8.9 µM"
>>> data_value("CCN(CC)CCNc1ccc(CO)c2sc3ccccc3c(=O)c12")
"12.5 µM"
>>> data_value("CN(C)[C@@H](c1cccc(O)c1)[C@H]1CCCC[C@H]1O")
"29.6 µM"
>>> data_value("CO[C@H]1C[C@@H]2CC[C@@H](C)[C@@](O)(O2)C(=O)C(=O)N2CCCC[C@H]2C(=O)O[C@H]([C@H](C)C[C@@H]2CC[C@@H](O)[C@H](OC)C2)CC(=O)[C@H](C)/C=C(\\C)[C@@H](O)[C@@H](OC)C(=O)[C@H](C)C[C@H](C)/C=C/C=C/C=C/1C")
"> 30 µM"
>>> data_value("CC[N+]1(C)[C@@H]2CC(OC(=O)[C@H](CO)c3ccccc3)C[C@H]1[C@@H]1O[C@@H]12 (some centres not stated)")
"> 30 µM"
>>> data_value("COC1=C(OC)C(=O)C(C/C=C(\\C)CC/C=C(\\C)CC/C=C(\\C)CC/C=C(\\C)CC/C=C(\\C)CC/C=C(\\C)CC/C=C(\\C)CC/C=C(\\C)CC/C=C(\\C)CCC=C(C)C)=C(C)C1=O")
"> 30 µM"
>>> data_value("O=C(Oc1ccc2c(c1)CCCN2C(=O)C(Cl)Cl)c1ccco1 [QUINFAMIDE]")
"> 30 µM"
>>> data_value("CCN(CC)CCc1nc(-c2ccccc2)no1")
"> 30 µM"
>>> data_value("OC(c1ccccc1)(c1ccccc1)C12CC[N+](CCOCc3ccccc3)(CC1)CC2")
"0.898 µM"
>>> data_value("OCCN1C[C@H](O)[C@@H](O)[C@H](O)[C@H]1CO")
"> 30 µM"
>>> data_value("NC(=O)C[C@H](N)C(=O)O")
"> 30 µM"
>>> data_value("O=C(Cc1ccc(-c2ccccc2)cc1)Nc1ccccn1 [DIFENPIRAMIDE]")
"0.58 µM"
>>> data_value("CN(C)CCN1C(=O)c2ccccc2N(C)c2ccccc21 [DIBENZEPIN]")
"> 30 µM"
>>> data_value("N[C@H](C(=O)O)[C@H](O)c1ccc(O)c(O)c1")
"> 30 µM"
>>> data_value("OC[C@@H](O)[C@H](O)[C@@H](O)CO")
"> 30 µM"
>>> data_value("Nc1ccc2cc3ccc(N)cc3nc2c1")
"5.16 µM"

----------
// values below are reported AC50
system: Cannabinoid receptor 1 (Homo sapiens); further: assay procedure not described here
Sequence (P21554 whole entry): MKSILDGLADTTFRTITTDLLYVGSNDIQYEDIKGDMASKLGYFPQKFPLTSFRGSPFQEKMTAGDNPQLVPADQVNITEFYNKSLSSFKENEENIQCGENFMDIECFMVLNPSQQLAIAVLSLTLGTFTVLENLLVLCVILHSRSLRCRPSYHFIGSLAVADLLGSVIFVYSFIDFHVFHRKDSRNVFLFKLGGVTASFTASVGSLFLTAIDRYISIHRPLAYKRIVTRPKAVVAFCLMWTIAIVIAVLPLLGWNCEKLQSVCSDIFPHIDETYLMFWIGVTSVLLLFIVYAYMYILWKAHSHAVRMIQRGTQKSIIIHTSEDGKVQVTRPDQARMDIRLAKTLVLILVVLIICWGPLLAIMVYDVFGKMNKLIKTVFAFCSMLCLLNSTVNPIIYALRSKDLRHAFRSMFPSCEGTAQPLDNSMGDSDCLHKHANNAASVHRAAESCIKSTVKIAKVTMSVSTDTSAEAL
reported-endpoint: AC50

>>> data_value("O=C(NCCN1CCOCC1)c1ccc(Cl)cc1 [MOCLOBEMIDE]")
"> 10 µM"
>>> data_value("CN1C(=O)C(O)N=C(c2ccccc2)c2cc(Cl)ccc21 (stereo not drawn) [TEMAZEPAM]")
"> 10 µM"
>>> data_value("Nc1ccn([C@H]2CC[C@@H](CO)O2)c(=O)n1 [ZALCITABINE]")
"> 10 µM"
>>> data_value("C[C@](N)(Cc1ccc(O)c(O)c1)C(=O)O [METHYLDOPA]")
"> 10 µM"
>>> data_value("O=C(O)[C@H](CC(=O)N1C[C@H]2CCCC[C@H]2C1)Cc1ccccc1 [MITIGLINIDE]")
"> 10 µM"
>>> data_value("C[C@H](N)[C@H](O)c1cccc(O)c1 [METARAMINOL]")
"> 10 µM"
>>> data_value("C=CCC1(CC(C)C)C(=O)NC(=O)NC1=O [BUTALBITAL]")
"> 10 µM"
>>> data_value("O=C(O[C@H]1C[C@H]2CC[C@@H](C1)[N+]21CCCC1)C(O)(c1ccccc1)c1ccccc1 [TROSPIUM]")
"> 30 µM"
>>> data_value("Cc1cccc(Nc2ccccc2C(=O)O)c1C [MEFENAMIC ACID]")
"> 10 µM"
>>> data_value("CN1C(=O)CCS(=O)(=O)C1c1ccc(Cl)cc1 (stereo not drawn) [CHLORMEZANONE]")
"> 10 µM"
>>> data_value("O=C(O)CCCCCCCC(=O)O [AZELAIC ACID]")
"> 10 µM"
>>> data_value("Clc1ccc(C(c2ccccc2Cl)C(Cl)Cl)cc1 (stereo not drawn) [MITOTANE]")
"12.8 µM"
>>> data_value("Cc1cc(O)c(C(=O)N[C@@H](C(=O)N[C@@H]2C(=O)N3C(C(=O)O)=C(CSc4nnnn4C)CS[C@H]23)c2ccc(O)cc2)cn1 [CEFPIRAMIDE]")
"> 30 µM"
>>> data_value("CCCN(CCC)C(=O)C(CCC(=O)O)NC(=O)c1ccccc1 (stereo not drawn) [PROGLUMIDE]")
"> 10 µM"
>>> data_value("COc1ccc(CCNCC(O)COc2cccc(C)c2)cc1OC (stereo not drawn) [BEVANTOLOL]")
"> 10 µM"
>>> data_value("O=C(O)C[C@H](O)C[C@H](O)/C=C/c1c(C2CC2)nc2ccccc2c1-c1ccc(F)cc1 [PITAVASTATIN]")
"> 10 µM"
>>> data_value("Cc1cn([C@H]2C=C[C@@H](CO)O2)c(=O)[nH]c1=O [STAVUDINE]")
"> 10 µM"
>>> data_value("NCC[C@H](O)C(=O)N[C@@H]1C[C@H](N)[C@@H](O[C@H]2O[C@H](CN)[C@@H](O)[C@H](O)[C@H]2O)[C@H](O)[C@H]1O[C@H]1O[C@H](CO)[C@@H](O)[C@H](N)[C@H]1O [AMIKACIN]")
"> 10 µM"
